Procedure text: photoluminescence quantum yield (fraction); solvent given as SMILES
Stated conditions: in CN(C)C=O
Please mark label 1 if the recorded photoluminescence quantum yield is equal to or greater than 0.08, and label 0 if it falls below.

Check the entry COCCOCCOCCOCCOc1ccc(OCCOCCOCCOCCOC)c(C=O)c1 : does photoluminescence quantum yield equal or exceed 0.08?
label 0

Check the entry CCC1=C(C)C2=C(c3cc(C4=C5C(C)=C(CC)C(C)=[N+]5[B-](F)(F)n5c(C)c(CC)c(C)c54)cc(C4=C5C(C)=C(CC)C(C)=[N+]5[B-](F)(F)n5c(C)c(CC)c(C)c54)c3)c3c(C)c(CC)c(C)n3[B-](F)(F)[N+]2=C1C : does photoluminescence quantum yield equal or exceed 0.08?
label 1

Check the entry Cc1nn(-c2ccccc2)c(C2=NN(c3ccc(Br)cc3)[C@@H](c3ccccc3)[C@@H]2c2ccccc2)c1C#N : does photoluminescence quantum yield equal or exceed 0.08?
label 1

Check the entry CCC(=O)c1ccc2cc(N(C)C)ccc2c1 : does photoluminescence quantum yield equal or exceed 0.08?
label 1

Check the entry CCN(CC)c1ccc2c(-c3ccc(S(=O)(=O)[O-])cc3S(=O)(=O)[O-])c3ccc(=[N+](CC)CC)cc-3oc2c1 : does photoluminescence quantum yield equal or exceed 0.08?
label 1

Check the entry CCN(CC)c1ccc2c(c1)oc(=O)c1cc3c(-c4ccccc4)nn(-c4ccccc4)c3nc12 : does photoluminescence quantum yield equal or exceed 0.08?
label 0

Check the entry O=C(O)c1ccccc1Nc1cccc(C(F)(F)F)c1 : does photoluminescence quantum yield equal or exceed 0.08?
label 0

Check the entry COc1cc2c(cc1OC)C1=C3C(=O)N4C=Cc5cc(OC)c(OC)cc5C4=C3C(=O)N1C=C2 : does photoluminescence quantum yield equal or exceed 0.08?
label 1

Check the entry O=[N+]([O-])c1ccc(NCCNCc2c3ccccc3cc3ccccc23)c([N+](=O)[O-])c1 : does photoluminescence quantum yield equal or exceed 0.08?
label 0

Check the entry CCN(CC)c1ccc2cc(/C=C(\C#N)c3nc4ccccc4o3)c(=O)oc2c1 : does photoluminescence quantum yield equal or exceed 0.08?
label 0

Check the entry CCCCCCCN1C(=CC2=C([O-])C(=Cc3sc4ccccc4[n+]3CCCCCCC)C2=C(C#N)C#N)Sc2ccccc21 : does photoluminescence quantum yield equal or exceed 0.08?
label 1

Check the entry CN(C)c1ccc(/C=C/C=C/c2nc3ccccc3s2)cc1 : does photoluminescence quantum yield equal or exceed 0.08?
label 0

Check the entry CC(C)(C)c1ccc(-c2c3ccccc3c3n2[B-](F)(F)[N+]2=Cc4c5ccccc5c(-c5ccc(C(C)(C)C)cc5)n4[B-](F)(F)[N+]2=C3)cc1 : does photoluminescence quantum yield equal or exceed 0.08?
label 1

Check the entry c1ccc(-c2nn(-c3ccccc3)c3nc4ccc(-n5c6ccccc6c6ccccc65)cc4cc23)cc1 : does photoluminescence quantum yield equal or exceed 0.08?
label 1

Check the entry CN(C)c1ccc(C2=Cc3ccc4ccccc4[n+]3[B-](F)(F)O2)cc1 : does photoluminescence quantum yield equal or exceed 0.08?
label 1

Check the entry CCN(CC)c1ccc2c(-c3ccccc3C(=O)[O-])c3ccc(=[N+](CC)CC)cc-3oc2c1 : does photoluminescence quantum yield equal or exceed 0.08?
label 1

Check the entry CN(C)c1ccc(/C=C2\CC/C(=C\c3ccc(N(C)C)cc3)C2=O)cc1 : does photoluminescence quantum yield equal or exceed 0.08?
label 1

Check the entry COCCOCCOc1cc(C=O)c(OCCOCCOC)cc1C=O : does photoluminescence quantum yield equal or exceed 0.08?
label 0

Check the entry CC(C)(C)c1ccc(-c2cc3c4c(c2)CCc2cc(-c5ccc(C(C)(C)C)cc5)cc(c2-4)CC3)cc1 : does photoluminescence quantum yield equal or exceed 0.08?
label 1

Check the entry NS(=O)(=O)c1ccc(N2N=C(c3ccc(O)cc3)CC2c2ccc([N+](=O)[O-])cc2)cc1 (stereo unspecified) : does photoluminescence quantum yield equal or exceed 0.08?
label 0

Check the entry Cc1cc(-c2ccc(-n3c4ccccc4c4ccccc43)cc2)nc(-c2ccc(-n3c4ccccc4c4ccccc43)cc2)n1 : does photoluminescence quantum yield equal or exceed 0.08?
label 1

Check the entry O=C1NC(=O)/C(=C\c2ccccc2O)S1 : does photoluminescence quantum yield equal or exceed 0.08?
label 0

Check the entry Cc1ccc2[nH]c(-c3ccc(-c4ccc(-c5ccc(-c6nc7cc(C)ccc7[nH]6)cc5)c(C)c4)cc3)nc2c1 : does photoluminescence quantum yield equal or exceed 0.08?
label 1

Check the entry CCOC(=O)c1sc(SC)c2c(=O)[nH]nnc12 : does photoluminescence quantum yield equal or exceed 0.08?
label 0

Check the entry C(=C\c1nc2ccccc2[nH]1)/c1ccc(/C=C/c2nc3ccccc3[nH]2)cc1 : does photoluminescence quantum yield equal or exceed 0.08?
label 1

Check the entry O=Cc1c(O)c(-c2nc3ccccc3s2)cc2ccccc12 : does photoluminescence quantum yield equal or exceed 0.08?
label 0

Check the entry c1cc2c([nH]c3c4[nH]c5sccc5c4c4nsnc4c23)s1 : does photoluminescence quantum yield equal or exceed 0.08?
label 1

Check the entry CN(C)c1ccc(C#Cc2ccc(C#Cc3ccc(C#Cc4ccccc4C#N)cc3C#N)cc2C#N)cc1 : does photoluminescence quantum yield equal or exceed 0.08?
label 0

Check the entry N#C/C(=C\c1ccc(C#N)cc1)c1nc(-c2ccccc2)cs1 : does photoluminescence quantum yield equal or exceed 0.08?
label 1

Check the entry CC1=[N+]2C(=C(c3c4ccccc4cc4ccccc34)c3ccc(C)n3[B-]2(F)F)C=C1 : does photoluminescence quantum yield equal or exceed 0.08?
label 0

Check the entry CCN(CC)c1ccc2c(c1)oc(=O)c1cc3cnn(-c4ccccc4)c3nc12 : does photoluminescence quantum yield equal or exceed 0.08?
label 0

Check the entry COCCOCCOCCOc1cc(C=O)c(OCCOCCOCCOC)cc1C=O : does photoluminescence quantum yield equal or exceed 0.08?
label 0

Check the entry CCn1c2ccccc2c2cc(C#Cc3cc(C#Cc4ccc5c(c4)c4ccccc4n5CC)nc(N4CCCCC4)n3)ccc21 : does photoluminescence quantum yield equal or exceed 0.08?
label 1

Check the entry CCC1=C(C)C2=C(c3c(C)cc(C)nc3-c3cccs3)c3c(C)c(CC)c(C)n3[B-](F)(F)[N+]2=C1C : does photoluminescence quantum yield equal or exceed 0.08?
label 1

Check the entry CCN(CC)c1ccc2cc(/C=C(\C#N)c3nc4ccccc4s3)c(=O)oc2c1 : does photoluminescence quantum yield equal or exceed 0.08?
label 0

* * *

Hi there, I'd appreciate the recorded photoluminescence quantum yield for every entry that follows.
Procedure text: photoluminescence quantum yield (fraction); solvent given as SMILES
Stated conditions: in C1CCCCC1

// COc1c2ccccc2c(OC)c2c1c1ccccc1n2C : photoluminescence quantum yield value = 0.46

// COc1ccc(C2=C(c3ccc(OC)cc3)C(C)(C)c3ccccc32)cc1 : photoluminescence quantum yield value = 0.09

// CCCCCCCCCCCCC(CCCCCCCCCC)Cn1c2cc(C=C(C#N)C#N)c3cccc4c5cccc6c(C=C(C#N)C#N)cc1c(c65)c2c34 (stereo not given) : photoluminescence quantum yield value = 0.13

// CCCCN1/C(=C\c2c(-c3ccc(N(C)C)cc3)c(=O)c2=O)C=Cc2ccccc21 : photoluminescence quantum yield value = 0.0242

// CC(C)(C)c1ccc(-c2cc3c4c(c2)CCc2cc(-c5ccc(C(C)(C)C)cc5)cc(c2-4)CC3)cc1 : photoluminescence quantum yield value = 0.61

// Cc1ccc2cc(C)ccc2c1 : photoluminescence quantum yield value = 0.59

// CC(C)CCC[C@@H](C)[C@H]1CC[C@H]2[C@@H]3CC=C4C[C@@H](OC(=O)Oc5cc(/C=C/c6ccc(N(C)C)cc6)ccc5[N+](=O)[O-])CC[C@]4(C)[C@H]3CC[C@]12C : photoluminescence quantum yield value = 0.29

// Cc1ccc(C)cc1 : photoluminescence quantum yield value = 0.39

// CN(C)c1ccc(C#Cc2ccc(C=O)cc2)cc1 : photoluminescence quantum yield value = 0.363

// CC(C)(C)c1ccc(C2=CC3=C(c4ccccc4)c4cc(-c5ccc(C(C)(C)C)cc5)c(-c5ccc(C(C)(C)C)cc5)n4[B-](F)(F)[N+]3=C2c2ccc(C(C)(C)C)cc2)cc1 : photoluminescence quantum yield value = 0.33

// Clc1ccc(/C=C(\c2ccccc2)c2nc3ccccc3s2)cc1 : photoluminescence quantum yield value = 0.001

// CC(C)[Si]1(C(C)C)c2cc(C#N)ccc2-c2ccc(N(c3ccccc3)c3ccccc3)cc21 : photoluminescence quantum yield value = 0.64

// CN(C)c1ccc2c(c1)C(=O)c1ccccc1-2 : photoluminescence quantum yield value = 0.0087

// Cn1nc(-c2ccccc2)c2nc3cc(F)ccc3nc21 : photoluminescence quantum yield value = 0.61

// Cc1ccc(C2=C3C=CC(/C=C/c4ccccc4)=[N+]3[B-](F)(F)n3c(Cl)ccc32)cc1 : photoluminescence quantum yield value = 0.72

// CC1=[N+]2C(=C(NC(C)c3ccccc3)c3ccc(C)n3[B-]2(F)F)C=C1c1cc2n(c1)[B-](F)(F)[N+]1=CC=CC1=C2c1c(C)cc(C)cc1C (stereo not given) : photoluminescence quantum yield value = 0.31

// COc1ccc(-c2cc3c4c(c2)CCc2cc(-c5ccc(OC)cc5)cc(c2-4)CC3)cc1 : photoluminescence quantum yield value = 0.81

// CC(=O)c1ccc(-c2nc3ccc(N(C)C)c(Cl)c3s2)cc1 : photoluminescence quantum yield value = 0.5

// Cc1nn(-c2ccccc2)c(C2=NN(c3ccc(Br)cc3)[C@@H](c3ccccc3)[C@@H]2c2ccccc2)c1C#N : photoluminescence quantum yield value = 0.56

// C[Si](C)(C)[Si](C)(C)c1ccc2cc3ccccc3cc2c1 : photoluminescence quantum yield value = 0.22
